target_desc: HeLa cell extract proteins (Homo sapiens)
Construct: endogenous in cells; host or cells: HeLa cell extract
Type: binding
test_context: HeLa; protein XPOT
Lab note - cut at 1 for fold changes relative to vehicle control: satisfied if strictly below, not satisfied if not.

Please indicate whether the reported fold changes relative to vehicle control of Nc1nc2c(c(=O)[nH]1)N(C=O)C(CNc1ccc(C(=O)N[C@@H](CCC(=O)O)C(=O)O)cc1)CN2 (stereo partly drawn) is strictly below 1.
satisfied

Please indicate whether the reported fold changes relative to vehicle control of "Nc1nc2cccc(-c3ccccc3)c2n1Cc1ccc(Cl)c(Cl)c1" is strictly below 1.
not satisfied

Please indicate whether the reported fold changes relative to vehicle control of NCCOCCOCC(=O)Nc1nc2ncc(CNc3ccc(C(=O)NC(CCC(=O)O)C(=O)O)cc3)nc2c(=O)[nH]1 (stereo not drawn) is strictly below 1.
satisfied

Please indicate whether the reported fold changes relative to vehicle control of "CCCCCCOc1ccc(Cc2cnc(N)nc2N)cc1" is strictly below 1.
satisfied

====

Tested on: L. major lysate proteins
experimental_protocol: Multitargeted bead mixture chemoproteomics, single concentration competition, proteome-wide
Format: binding
test_context: protein LMJF.24.1630, SUCCINATE DEHYDROGENASE FLAVOPROTEIN, PUTATIVE
So I've got a bunch of compounds here, and I need their fold change relative to vehicle control values.

For NCCOCCOCC(=O)Nc1nc2ncc(CNc3ccc(C(=O)NC(CCC(=O)O)C(=O)O)cc3)nc2c(=O)[nH]1 (stereo not shown) , what is its reported fold change relative to vehicle control?
1.08

For Nc1nc2c(c(=O)[nH]1)N(C=O)C(CNc1ccc(C(=O)N[C@@H](CCC(=O)O)C(=O)O)cc1)CN2 (stereo partly shown) , what is its reported fold change relative to vehicle control?
1.06

For NCCCNc1ccc(C(=O)NC(CCC(=O)O)C(=O)O)cc1 (stereo not shown) , what is its reported fold change relative to vehicle control?
1

For "Nc1nc2[nH]cc(CCc3ccc(C(=O)N[C@@H](CCC(=O)O)C(=O)O)cc3)c2c(=O)[nH]1" , what is its reported fold change relative to vehicle control?
0.98

====

target_desc: HeLa cell extract proteins (Homo sapiens)
Construct: endogenous in cells; host or cells: HeLa cell extract
Assay type: binding
test_context: protein PDIA3; HeLa
Please enter Criterion met where fold changes relative to vehicle control is greater than or equal to 0.9, and Criterion not met where it is lower.

Check if fold changes relative to vehicle control >= 0.9 (inclusive). Item: "CCCCCCOc1cccc(Cc2cnc(N)nc2N)c1"
Criterion met

Check if fold changes relative to vehicle control >= 0.9 (inclusive). Item: NCCOCCOCC(=O)Nc1nc2ncc(CNc3ccc(C(=O)NC(CCC(=O)O)C(=O)O)cc3)nc2c(=O)[nH]1 (stereo not drawn)
Criterion met

Check if fold changes relative to vehicle control >= 0.9 (inclusive). Item: NCCCNc1ccc(C(=O)NC(CCC(=O)O)C(=O)O)cc1 (stereo not drawn)
Criterion not met

Check if fold changes relative to vehicle control >= 0.9 (inclusive). Item: "CCCCCCOc1ccc(Cc2cnc(N)nc2N)cc1"
Criterion met

Check if fold changes relative to vehicle control >= 0.9 (inclusive). Item: Nc1nc2c(c(=O)[nH]1)N(C=O)C(CNc1ccc(C(=O)N[C@@H](CCC(=O)O)C(=O)O)cc1)CN2 (stereo partly drawn)
Criterion met

Check if fold changes relative to vehicle control >= 0.9 (inclusive). Item: "Nc1nc2cccc(-c3ccccc3)c2n1Cc1ccc(Cl)c(Cl)c1"
Criterion not met

====

So I've got a bunch of compounds here, and I need their fold changes relative to vehicle control values.
target_desc: HeLa cell extract proteins (Homo sapiens)
Construct: endogenous in cells; host or cells: HeLa cell extract
Assay type: binding
test_context: HeLa; protein COX4I1
Form: value (number only, do not type unit).

For "CCCCCCOc1ccc(Cc2cnc(N)nc2N)cc1" , what is its reported fold changes relative to vehicle control?
1.03

For "CCCCCCOc1cccc(Cc2cnc(N)nc2N)c1" , what is its reported fold changes relative to vehicle control?
1.21

For NCCOCCOCC(=O)Nc1nc2ncc(CNc3ccc(C(=O)NC(CCC(=O)O)C(=O)O)cc3)nc2c(=O)[nH]1 (stereo not drawn) , what is its reported fold changes relative to vehicle control?
1.04

For "Nc1nc2cccc(-c3ccccc3)c2n1Cc1ccc(Cl)c(Cl)c1" , what is its reported fold changes relative to vehicle control?
1

For Nc1nc2c(c(=O)[nH]1)N(C=O)C(CNc1ccc(C(=O)N[C@@H](CCC(=O)O)C(=O)O)cc1)CN2 (stereo partly drawn) , what is its reported fold changes relative to vehicle control?
0.9

For NCCCNc1ccc(C(=O)NC(CCC(=O)O)C(=O)O)cc1 (stereo not drawn) , what is its reported fold changes relative to vehicle control?
1.17

====

target_desc: HeLa cell extract proteins (Homo sapiens, UniProt P23381)
Construct: endogenous in cells; host or cells: HeLa cell extract
Sequence (P23381 whole entry): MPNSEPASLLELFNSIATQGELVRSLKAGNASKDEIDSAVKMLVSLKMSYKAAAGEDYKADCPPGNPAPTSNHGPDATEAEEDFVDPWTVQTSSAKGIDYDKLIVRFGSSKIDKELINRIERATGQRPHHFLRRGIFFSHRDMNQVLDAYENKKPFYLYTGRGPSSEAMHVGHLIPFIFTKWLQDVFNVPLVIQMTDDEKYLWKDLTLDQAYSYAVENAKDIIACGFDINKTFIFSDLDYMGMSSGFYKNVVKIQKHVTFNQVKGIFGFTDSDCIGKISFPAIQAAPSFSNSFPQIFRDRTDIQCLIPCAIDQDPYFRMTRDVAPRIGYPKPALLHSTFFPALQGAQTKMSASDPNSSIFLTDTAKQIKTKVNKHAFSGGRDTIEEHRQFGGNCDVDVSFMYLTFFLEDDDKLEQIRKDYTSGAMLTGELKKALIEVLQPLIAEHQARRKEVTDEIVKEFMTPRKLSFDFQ
Assay type: binding
test_context: protein WARS; HeLa
result_type: fold changes relative to vehicle control

For NCCCNc1ccc(C(=O)NC(CCC(=O)O)C(=O)O)cc1 (stereo not drawn) , what is its reported fold changes relative to vehicle control?
0.98

For NCCOCCOCC(=O)Nc1nc2ncc(CNc3ccc(C(=O)NC(CCC(=O)O)C(=O)O)cc3)nc2c(=O)[nH]1 (stereo not drawn) , what is its reported fold changes relative to vehicle control?
1.19

For "CCCCCCOc1cccc(Cc2cnc(N)nc2N)c1" , what is its reported fold changes relative to vehicle control?
1.71

For "CCCCCCOc1ccc(Cc2cnc(N)nc2N)cc1" , what is its reported fold changes relative to vehicle control?
0.96

For Nc1nc2c(c(=O)[nH]1)N(C=O)C(CNc1ccc(C(=O)N[C@@H](CCC(=O)O)C(=O)O)cc1)CN2 (stereo partly drawn) , what is its reported fold changes relative to vehicle control?
0.95

For "Nc1nc2cccc(-c3ccccc3)c2n1Cc1ccc(Cl)c(Cl)c1" , what is its reported fold changes relative to vehicle control?
0.9

====

Test system: TB927.8.6760
experimental_protocol: Multitargeted bead mixture competition
Format: binding
test_context: free ligand 100 μM, T. brucei lysate
So I've got a bunch of compounds here, and I need their percentage of competition from bead binding values.
Form entry: value (%) — number only.

For "Cc1ccc2nc(N)[nH]c(=O)c2c1Sc1ccncc1" , what is its reported percentage of competition from bead binding?
8

For "Nc1nc(O)c2c(CCc3ccccc3)c[nH]c2n1" , what is its reported percentage of competition from bead binding?
-71

For "Nc1nc2cccc(-c3ccccc3)c2n1Cc1ccc(Cl)c(Cl)c1" , what is its reported percentage of competition from bead binding?
20

For CN(Cc1cnc2nc(N)nc(N)c2n1)c1ccc(C(=O)N[C@@H](CCC(=O)O)C(=O)O)cc1 [MTX, methotrexate] , what is its reported percentage of competition from bead binding?
50

====

target_desc: HeLa cell extract proteins (Homo sapiens, UniProt P53618)
Construct: endogenous in cells; host or cells: HeLa cell extract
Sequence (P53618 whole entry): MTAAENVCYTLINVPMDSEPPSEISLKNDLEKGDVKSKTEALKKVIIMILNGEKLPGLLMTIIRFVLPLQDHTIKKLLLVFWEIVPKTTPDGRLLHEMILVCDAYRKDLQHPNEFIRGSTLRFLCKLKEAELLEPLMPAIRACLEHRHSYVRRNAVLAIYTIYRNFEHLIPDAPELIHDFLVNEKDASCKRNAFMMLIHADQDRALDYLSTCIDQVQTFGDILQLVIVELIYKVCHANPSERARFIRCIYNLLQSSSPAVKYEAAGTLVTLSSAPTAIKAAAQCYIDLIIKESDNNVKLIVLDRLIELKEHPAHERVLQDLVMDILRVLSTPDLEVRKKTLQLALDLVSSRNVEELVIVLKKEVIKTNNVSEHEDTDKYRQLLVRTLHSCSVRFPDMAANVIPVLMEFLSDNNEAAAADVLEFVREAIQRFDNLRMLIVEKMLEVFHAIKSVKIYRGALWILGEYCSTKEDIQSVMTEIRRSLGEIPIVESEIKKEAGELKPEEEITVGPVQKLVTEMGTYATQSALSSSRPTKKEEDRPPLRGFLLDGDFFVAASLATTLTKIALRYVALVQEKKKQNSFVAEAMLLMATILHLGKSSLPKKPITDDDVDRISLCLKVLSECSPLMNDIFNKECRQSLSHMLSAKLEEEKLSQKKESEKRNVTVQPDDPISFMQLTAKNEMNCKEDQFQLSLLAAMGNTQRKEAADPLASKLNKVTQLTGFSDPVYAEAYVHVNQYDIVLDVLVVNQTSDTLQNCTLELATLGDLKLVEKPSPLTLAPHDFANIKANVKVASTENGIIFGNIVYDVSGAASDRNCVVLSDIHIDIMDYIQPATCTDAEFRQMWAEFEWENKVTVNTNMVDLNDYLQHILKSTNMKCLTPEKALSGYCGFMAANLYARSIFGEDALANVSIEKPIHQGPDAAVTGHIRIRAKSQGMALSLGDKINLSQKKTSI
Type: binding
test_context: HeLa; protein COPB1
Please enter MET where fold changes relative to vehicle control is greater than or equal to 1, and NOT MET where it is lower.

Check if fold changes relative to vehicle control >= 1 (inclusive). Item: NCCOCCOCC(=O)Nc1nc2ncc(CNc3ccc(C(=O)NC(CCC(=O)O)C(=O)O)cc3)nc2c(=O)[nH]1 (stereo not drawn)
NOT MET

Check if fold changes relative to vehicle control >= 1 (inclusive). Item: "CCCCCCOc1ccc(Cc2cnc(N)nc2N)cc1"
NOT MET

Check if fold changes relative to vehicle control >= 1 (inclusive). Item: "Nc1nc2cccc(-c3ccccc3)c2n1Cc1ccc(Cl)c(Cl)c1"
MET

Check if fold changes relative to vehicle control >= 1 (inclusive). Item: Nc1nc2c(c(=O)[nH]1)N(C=O)C(CNc1ccc(C(=O)N[C@@H](CCC(=O)O)C(=O)O)cc1)CN2 (stereo partly drawn)
NOT MET

Check if fold changes relative to vehicle control >= 1 (inclusive). Item: NCCCNc1ccc(C(=O)NC(CCC(=O)O)C(=O)O)cc1 (stereo not drawn)
NOT MET

Check if fold changes relative to vehicle control >= 1 (inclusive). Item: "CCCCCCOc1cccc(Cc2cnc(N)nc2N)c1"
MET

====

target_desc: HeLa cell extract proteins (Homo sapiens, UniProt P50991)
Construct: endogenous in cells; host or cells: HeLa cell extract
Sequence (P50991 whole entry): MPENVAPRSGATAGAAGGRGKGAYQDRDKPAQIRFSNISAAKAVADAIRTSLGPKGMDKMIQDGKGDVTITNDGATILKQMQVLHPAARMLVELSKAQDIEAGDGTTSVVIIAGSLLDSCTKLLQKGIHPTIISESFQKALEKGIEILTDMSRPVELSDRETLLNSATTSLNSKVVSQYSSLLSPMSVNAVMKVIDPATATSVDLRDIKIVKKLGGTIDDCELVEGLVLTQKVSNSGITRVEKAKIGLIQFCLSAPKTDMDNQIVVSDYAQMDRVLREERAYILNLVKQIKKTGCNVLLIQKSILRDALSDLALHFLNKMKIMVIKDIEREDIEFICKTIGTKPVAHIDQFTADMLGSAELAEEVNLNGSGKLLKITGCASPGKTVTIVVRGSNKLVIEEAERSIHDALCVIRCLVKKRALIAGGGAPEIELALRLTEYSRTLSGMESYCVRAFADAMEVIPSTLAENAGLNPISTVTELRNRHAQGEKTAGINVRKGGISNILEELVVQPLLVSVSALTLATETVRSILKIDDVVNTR
Format: binding
test_context: protein CCT4; HeLa
Please enter class 1 where fold changes relative to vehicle control is greater than or equal to 1, and class 0 where it is lower.

Check if fold changes relative to vehicle control >= 1 (inclusive). Item: "CCCCCCOc1cccc(Cc2cnc(N)nc2N)c1"
class 1

Check if fold changes relative to vehicle control >= 1 (inclusive). Item: NCCOCCOCC(=O)Nc1nc2ncc(CNc3ccc(C(=O)NC(CCC(=O)O)C(=O)O)cc3)nc2c(=O)[nH]1 (stereo not drawn)
class 1

Check if fold changes relative to vehicle control >= 1 (inclusive). Item: "CCCCCCOc1ccc(Cc2cnc(N)nc2N)cc1"
class 1

Check if fold changes relative to vehicle control >= 1 (inclusive). Item: NCCCNc1ccc(C(=O)NC(CCC(=O)O)C(=O)O)cc1 (stereo not drawn)
class 0
